Test summary: Solubility in aqueous media (HPLC)
Assay type: physicochemical
Assay context: thermodynamic from solid; FaSSIF (pH 6.5), 25° C., 24 hours, final pH 6.60
Experimental: The solubility of Compound 1a prepared in Example 1 was evaluated in several different media, including pH 1.2 hydrochloric acid buffer, pH 3.0 citrate buffer, pH 4.7 acetate buffer, pH 6.8 phosphate buffer, simulated gastric fluid, fasted-state simulated intestinal fluid, fed-state simulated intestinal fluid, and water. […] Solubility was determined using HPLC, and a calibration curve was created by injecting a known concentration of Compound 1a. […]
Measurement label: solubility at 24 h

// sample CCCCCCCCCCn1cc(CCC(N)(CO)CO)nn1 , its solubility at 24 h was > 2000 µg/mL

---

For each entry below, report its DVS remark (adsorption at 90% RH) value.
Test summary: Hygroscopicity test by DVS
Assay type: physicochemical
Assay context: water adsorption at 90% RH, DVS

Briefly, DVS remark (adsorption at 90% RH) measured for CCCCCCCCCCn1cc(CCC(N)(CO)CO)nn1.O=C(O)CCCCC(=O)O : 22.46%

So for CC(=O)O.CCCCCCCCCCn1cc(CCC(N)(CO)CO)nn1 [compound 4] , the logged DVS remark (adsorption at 90% RH) turned out to be 33.67%

---

Test summary: Solubility in aqueous media (HPLC)
Type: physicochemical
Assay context: aqueous with cosolvent or surfactant or cyclodextrin, thermodynamic from solid; 0.5% Methylcellulose, 25° C., 24 hours, final pH 6.04
Description: The solubility of Compound 1a prepared in Example 1 was evaluated in several different media, including pH 1.2 hydrochloric acid buffer, pH 3.0 citrate buffer, pH 4.7 acetate buffer, pH 6.8 phosphate buffer, simulated gastric fluid, fasted-state simulated intestinal fluid, fed-state simulated intestinal fluid, and water. […] Solubility was determined using HPLC, and a calibration curve was created by injecting a known concentration of Compound 1a. […]
Measurement label: solubility at 24 h

Documented solubility at 24 h of CCCCCCCCCCn1cc(CCC(N)(CO)CO)nn1 : > 2000 µg/mL

---

Test summary: Solubility in aqueous media (HPLC)
Type: physicochemical
Assay context: thermodynamic from solid; Water, 25° C., 24 hours, final pH 6.04
Measurement label: solubility at 24 h

Looking up CCCCCCCCCCn1cc(CCC(N)(CO)CO)nn1 , I found its solubility at 24 h recorded as > 2000 µg/mL

---

Test summary: Hygroscopicity test by DVS
Assay type: physicochemical
Assay context: water adsorption at 90% RH, DVS
Measurement label: DVS remark (adsorption at 90% RH) (%)
Reply numerically in %, unit not repeated.

get_value(item= CCCCCCCCCCn1cc(CCC(N)(CO)CO)nn1.Cl [Comparative Example 1, reference compound] , readout=DVS remark (adsorption at 90% RH)) returns 49.5

Data point: CCCCCCCCCCn1cc(CCC(N)(CO)CO)nn1.O=C(O)CC(O)(CC(=O)O)C(=O)O [compound 6] ; DVS remark (adsorption at 90% RH) = 22.80

What the record says about CC(=O)O.CCCCCCCCCCn1cc(CCC(N)(CO)CO)nn1 [compound 3] : DVS remark (adsorption at 90% RH) is 34.33

Lookup result for CCCCCCCCCCn1cc(CCC(N)(CO)CO)nn1.O=C(O)CCC(=O)O [compound 2] ; measured DVS remark (adsorption at 90% RH): 19.42
